STUDY_TARGET: human CD33 N349A (human, UniProt P20138 18-364)
Sequence (P20138 18-364 N349A limits assumed): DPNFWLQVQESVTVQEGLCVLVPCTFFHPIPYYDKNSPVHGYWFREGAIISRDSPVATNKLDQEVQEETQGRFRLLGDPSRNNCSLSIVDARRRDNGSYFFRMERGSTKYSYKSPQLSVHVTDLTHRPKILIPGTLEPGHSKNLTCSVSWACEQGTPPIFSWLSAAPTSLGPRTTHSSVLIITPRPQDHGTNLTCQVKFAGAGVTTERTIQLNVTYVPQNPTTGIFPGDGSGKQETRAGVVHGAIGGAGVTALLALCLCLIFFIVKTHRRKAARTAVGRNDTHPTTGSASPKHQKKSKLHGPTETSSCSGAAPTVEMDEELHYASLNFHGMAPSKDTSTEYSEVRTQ
ASSAY_REMARKS: flow cytometry, alanine scan

# BINDER, Mean % WT Binding
data = [
    ("Refmab #2 (antibody, V domains shown, The alanine scan used IgG or Fab) VH: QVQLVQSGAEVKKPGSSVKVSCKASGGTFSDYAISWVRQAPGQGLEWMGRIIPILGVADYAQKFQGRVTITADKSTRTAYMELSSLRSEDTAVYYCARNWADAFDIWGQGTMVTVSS VL: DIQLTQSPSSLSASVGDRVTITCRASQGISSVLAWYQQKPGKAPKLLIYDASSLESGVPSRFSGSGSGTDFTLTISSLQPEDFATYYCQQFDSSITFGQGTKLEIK", "110 % of WT"),
    ("Refmab #3 (antibody, V domains shown, The alanine scan used IgG or Fab) VH: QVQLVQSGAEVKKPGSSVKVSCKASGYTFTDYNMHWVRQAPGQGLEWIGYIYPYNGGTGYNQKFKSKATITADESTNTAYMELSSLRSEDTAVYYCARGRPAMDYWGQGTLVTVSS VL: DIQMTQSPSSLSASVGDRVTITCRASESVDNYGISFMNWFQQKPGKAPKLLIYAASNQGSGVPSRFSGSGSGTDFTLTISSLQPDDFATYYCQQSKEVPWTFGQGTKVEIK", "121 % of WT"),
    ("Refmab #1 (antibody, V domains shown, The alanine scan used IgG or Fab; also called hP67.6) VH: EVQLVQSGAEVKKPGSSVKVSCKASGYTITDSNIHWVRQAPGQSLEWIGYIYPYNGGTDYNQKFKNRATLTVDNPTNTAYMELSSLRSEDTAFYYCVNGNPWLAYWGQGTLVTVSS VL: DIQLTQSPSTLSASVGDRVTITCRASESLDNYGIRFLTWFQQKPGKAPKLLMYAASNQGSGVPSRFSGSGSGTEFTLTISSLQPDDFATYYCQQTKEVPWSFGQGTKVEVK", "92.3 % of WT"),
    ("Refmab #4 (antibody, V domains shown, The alanine scan used IgG or Fab) VH: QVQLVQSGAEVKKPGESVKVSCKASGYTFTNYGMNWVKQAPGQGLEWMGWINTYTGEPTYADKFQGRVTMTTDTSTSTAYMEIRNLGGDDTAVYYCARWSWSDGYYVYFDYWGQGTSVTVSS VL: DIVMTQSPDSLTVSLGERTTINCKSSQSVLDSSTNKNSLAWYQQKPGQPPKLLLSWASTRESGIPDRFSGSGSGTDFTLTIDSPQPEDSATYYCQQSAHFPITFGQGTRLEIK", "95.5 % of WT"),
]
